Ki reference
- target.desc: Human α2δ-1 subunit of Cav2.2 calcium channel (Homo sapiens, UniProt P54289)
- Sequence (P54289 25-1103): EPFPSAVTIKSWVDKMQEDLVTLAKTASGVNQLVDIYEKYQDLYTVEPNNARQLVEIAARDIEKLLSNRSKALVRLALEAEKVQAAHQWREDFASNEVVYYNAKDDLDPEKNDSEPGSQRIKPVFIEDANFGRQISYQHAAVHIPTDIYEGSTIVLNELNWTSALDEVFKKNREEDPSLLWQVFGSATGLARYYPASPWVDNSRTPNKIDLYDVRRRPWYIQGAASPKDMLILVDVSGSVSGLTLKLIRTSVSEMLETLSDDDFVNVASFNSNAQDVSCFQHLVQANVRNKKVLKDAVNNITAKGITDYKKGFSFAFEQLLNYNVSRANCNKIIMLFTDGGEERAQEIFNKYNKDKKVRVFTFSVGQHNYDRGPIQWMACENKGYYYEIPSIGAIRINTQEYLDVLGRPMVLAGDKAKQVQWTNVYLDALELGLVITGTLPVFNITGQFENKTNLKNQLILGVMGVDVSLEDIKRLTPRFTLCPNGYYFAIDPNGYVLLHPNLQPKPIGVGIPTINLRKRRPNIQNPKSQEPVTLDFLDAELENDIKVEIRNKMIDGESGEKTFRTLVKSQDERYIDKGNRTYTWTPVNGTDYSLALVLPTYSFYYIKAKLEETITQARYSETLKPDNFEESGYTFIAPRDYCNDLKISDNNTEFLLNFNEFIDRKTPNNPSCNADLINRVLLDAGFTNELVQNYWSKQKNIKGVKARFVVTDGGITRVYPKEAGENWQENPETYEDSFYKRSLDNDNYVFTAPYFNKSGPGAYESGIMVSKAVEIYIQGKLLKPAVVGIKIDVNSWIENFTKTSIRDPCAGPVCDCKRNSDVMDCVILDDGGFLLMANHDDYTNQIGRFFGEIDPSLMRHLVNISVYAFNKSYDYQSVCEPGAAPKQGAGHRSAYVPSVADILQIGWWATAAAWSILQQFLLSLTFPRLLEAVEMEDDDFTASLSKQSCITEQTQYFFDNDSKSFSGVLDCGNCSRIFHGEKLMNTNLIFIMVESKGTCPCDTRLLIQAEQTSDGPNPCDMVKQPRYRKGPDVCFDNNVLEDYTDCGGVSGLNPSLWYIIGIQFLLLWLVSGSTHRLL
- experimental.protocol: Human α2δ-1 subunit of Cav2.2 calcium channel assay ([3H]-gabapentin binding)
- condition.label: binding to the α2δ-1 subunit of voltage-gated calcium channels, expressed as Ki class; + also covers inhibition between 1% and 50%

CCC[C@H](c1nc2cc(F)c(OC)cc2c(=O)n1CC)N1CCNC[C@H](C)C1
0.5 to 5 µM
CCCC(c1nc2ccc(Cl)cc2c(=O)n1CCC)N1CCCN(C)CC1 (centres unmarked)
< 0.5 µM
CCC[C@@H](c1nc2ccncc2c(=O)n1CC)N1CCNC[C@@H](C)C1
0.5 to 5 µM
CCC[C@H](c1nc2cc(F)c(OC)cc2c(=O)n1CC)N1CCN(C)C[C@@H](C)C1
< 0.5 µM

*Q* Given `CCC[C@@H](c1nc2ccc(Br)cc2c(=O)n1CC)N1CCN(C)C[C@@H](COC)C1` , state its recorded Ki.
*A* > 5 µM

---

Ki reference
- target.desc: Human σ1 receptor (Homo sapiens, UniProt Q99720)
- Construct: expressed in transfected cells; host or cells: HEK-293
- Sequence (Q99720 whole entry): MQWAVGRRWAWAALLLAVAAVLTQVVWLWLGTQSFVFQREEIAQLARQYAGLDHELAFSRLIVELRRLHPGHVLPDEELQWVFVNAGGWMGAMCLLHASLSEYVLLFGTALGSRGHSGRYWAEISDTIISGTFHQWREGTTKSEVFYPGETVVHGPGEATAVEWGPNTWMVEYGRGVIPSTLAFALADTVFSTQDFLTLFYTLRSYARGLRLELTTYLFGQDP
- experimental.protocol: Human σ1 receptor radioligand assay ([3H](+)-pentazocine binding)
- condition.label: binding to the σ1 receptor, expressed as Ki class; + also covers inhibition between 1% and 50%

CCC[C@@H](c1nc2ccc(Br)cc2c(=O)n1CC)N1CCCN[C@@H](C)C1
> 1000 nM

*Q* Given CCCC(c1nc2cc(F)c(F)cc2c(=O)n1CC)N1CCCN(C)CC1 (stereo not shown) , state its recorded Ki.
*A* 500 to 1000 nM

*Q* Given `CCC[C@@H](c1nc2ccncc2c(=O)n1CC)N1CCNC[C@@H](C)C1` , state its recorded Ki.
*A* > 1000 nM

*Q* Given `CCC[C@H](c1nc2ccc(Br)cc2c(=O)n1CC)N1CCN(C)C[C@H](CO)C1` , state its recorded Ki.
*A* 500 to 1000 nM

---

- target.desc: Human α2δ-1 subunit of Cav2.2 calcium channel (Homo sapiens)
- experimental.protocol: Human α2δ-1 subunit of Cav2.2 calcium channel assay ([3H]-gabapentin binding)
- condition.label: binding to the α2δ-1 subunit of voltage-gated calcium channels, expressed as Ki class; + also covers inhibition between 1% and 50%
quantity.measured: Ki

Example entries and their recorded answers appear below.
CCC[C@H](c1nc2ccc(F)cc2c(=O)n1CCC(C)C)N1CCCN(CC)CC1 [Example 221]
> 5 µM
CCCC(c1nc2ccc(Br)cc2c(=O)n1CC)N1CCN(C)CC(F)(F)C1 (stereo not drawn) [Example 42]
> 5 µM
CCC[C@H](c1nc2ccc(C(F)(F)F)cc2c(=O)n1CC)N1CCCN(C)CC1 [Example 252]
< 0.5 µM
CCC[C@H](c1nc2ccc(Br)cc2c(=O)n1CC)N1CCN2CCC1CC2 [Example 66]
> 5 µM
CCC[C@H](c1nc2ccc(Cl)cc2c(=O)n1C)N1CC[C@H](C)N(C)CC1 [Example 254]
> 5 µM

*Q* Given CCC[C@H](c1nc2ccc(Br)cc2c(=O)n1CCC)N1CCNC[C@@H](C)C1 [Example 68] , state its recorded Ki.
*A* < 0.5 µM

*Q* Given CCCC(c1nc2nc(C(F)(F)F)ccc2c(=O)n1CC)N1CCCN(C)CC1 (stereo not drawn) [Example 190] , state its recorded Ki.
*A* 0.5 to 5 µM

*Q* Given CCCC(c1nc2c(F)cc(Br)cc2c(=O)n1CC)N1CCCNCC1 (stereo not drawn) [Example 55] , state its recorded Ki.
*A* 0.5 to 5 µM

*Q* Given CCC[C@H](c1nc2ccc(Br)cc2c(=O)n1CC)N1CC[C@H](C)N(C)CC1 [Example 262] , state its recorded Ki.
*A* < 0.5 µM
